B1: Hairpin Ribozyme (parent)
chain: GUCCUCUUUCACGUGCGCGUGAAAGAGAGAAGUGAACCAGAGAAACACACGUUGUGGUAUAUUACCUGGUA

variants of: B1; test: self-cleavage, relative activity (ratio to wild type); higher = more cleavage; co-transcriptional
For each entry below, report its self-cleavage value.

Below, 3 variants whose answers are already recorded.
- MUTATION_SPEC: "G15U C65G"
  MEASURED_ENDPOINT: "self-cleavage"
  RESULT: 0.244
- MUTATION_SPEC: "G17U"
  MEASURED_ENDPOINT: "self-cleavage"
  RESULT: 0.961
- MUTATION_SPEC: "G32C A35C"
  MEASURED_ENDPOINT: "self-cleavage"
  RESULT: 0

Now for another entry.
If you can, please state the reported self-cleavage value of A24G C37U .
0.294
